# ASSAY NOTES: physchem
# MEASUREMENT SETUP: citrate buffer, pH 5
ENDPOINT LABEL: solubility kinetic at 2 h (µM)

Illustrative cases are given below, each with its answer.
O=C(Nc1sc2c(c1C(=O)N1CCC(CO)C1)CCCC2)c1cccnc1 (centres undefined) : 365
CC1CCN(CC(=O)Nc2sc3c(c2C(=O)NCc2ccccc2)CCCC3)CC1 : 3.02
CSc1ncc(Cl)c(C(=O)Nc2sc3c(c2C(=O)NC2CCS(=O)(=O)C2)CCC(C)C3)n1 (centres undefined) : 9.72
CC1CCCN1C(=O)c1c(NC(=O)c2cccnc2)sc2c1CCCC2 (centres undefined) : 392
CCC1CCc2c(sc(NC(=O)c3ccnn3C)c2C(=O)Nc2ccccc2C)C1 (centres undefined) : 8.13
CN1CCN(CC(=O)Nc2sc3c(c2C(=O)NCc2ccccc2)CCCC3)CC1 : 357
C[C@@H]1CCN(C(=O)c2c(NC(=O)c3cccnc3)sc3c2CCCC3)[C@H](C)C1 (single isomer, unassigned) : 23.7

a: Cn1ccnc1SCC(=O)Nc1sc2c(c1C(=O)NCc1ccccc1)CCCC2
b: CC1CCc2c(sc(NC(=O)c3ccccc3F)c2C(=O)N2CCN(C)CC2)C1 (centres undefined)
Recorded solubility kinetic at 2 h values differ for a and b ; which one is higher? Give the chosen item's label as your response.
b
(b: 349 µM, a: 13.6 µM)

* * *

# ASSAY SYSTEM: Nuclear receptor ROR-gamma (Homo sapiens) (UniProt P51449)
# MEASUREMENT SETUP: HEK293T, filed as inverse agonist, dose 0.004-1000 nM
ENDPOINT LABEL: deltaG (kcal/mol)

Illustrative cases are given below, each with its answer.
CSc1ncc(Cl)c(C(=O)Nc2sc3c(c2C(=O)NC2CCS(=O)(=O)C2)CCC(C)C3)n1 (configuration not stated) : -9.75
CSc1ncc(Cl)c(C(=O)Nc2sc3c(c2C(=O)NCc2ccccc2)CCCC3)n1 : -11.6
CN1CCN(CC(=O)Nc2sc3c(c2C(=O)NCc2ccccc2)CCCC3)CC1 : -12.5
O=C(NCc1ccccc1)c1c(NC(=O)C(F)(F)F)sc2c1CCCC2 : -10.2

I: Cc1ccnc(SCC(=O)Nc2sc3c(c2C(=O)NCc2ccccc2)CCCC3)n1
II: O=C(Nc1sc2c(c1C(=O)N1CCC(CO)C1)CCCC2)c1cccnc1 (configuration not stated)
Recorded deltaG values differ for I and II ; which one is higher? Give the chosen item's label as your response.
II

* * *

# ASSAY SYSTEM: Nuclear receptor ROR-gamma (Homo sapiens)
# ASSAY NOTES: biochemical
pIC50: −log10 of the molar value.
ENDPOINT LABEL: pIC50

O=C(Nc1sc2c(c1C(=O)c1ccccc1)CCCC2)c1cnccn1 : 7.71
CN1CCN(CC(=O)Nc2sc3c(c2C(=O)NCc2ccccc2)CCCC3)CC1 : 8.93
O=C(Nc1sc2c(c1C(=O)N1CCC(CO)C1)CCCC2)c1cccnc1 (stereo unspecified) : 7.34

P: O=C(CN1CCCCC1)Nc1sc2c(c1C(=O)NCc1ccccc1)CCCC2
Q: O=C(Nc1sc2c(c1C(=O)NCC1CCNCC1)CCCC2)c1cccnc1
R: CC1CCCN1C(=O)c1c(NC(=O)c2cccnc2)sc2c1CCCC2 (stereo unspecified)
# rank_down: sort by pIC50, max first Please respond with the labels ordered as the question requires.
P, R, Q

* * *

# ASSAY NOTES: physchem
# MEASUREMENT SETUP: fasted state simulated gastric fluid, pH 1.6
ENDPOINT LABEL: solubility kinetic at 2 h (µM)

Illustrative cases are given below, each with its answer.
O=C(Nc1sc2c(c1C(=O)N1CCC(CO)C1)CCCC2)c1cccnc1 (centres undefined) : 330
Cn1ccnc1SCC(=O)Nc1sc2c(c1C(=O)NCc1ccccc1)CCCC2 : 267
CSc1ncc(Cl)c(C(=O)Nc2sc3c(c2C(=O)NC2CCS(=O)(=O)C2)CCC(C)C3)n1 (centres undefined) : 1.7

A: CCC1CCc2c(sc(NC(=O)c3ccnn3C)c2C(=O)Nc2ccccc2C)C1 (centres undefined)
B: CC1CCN(CC(=O)Nc2sc3c(c2C(=O)NCc2ccccc2)CCCC3)CC1
Please indicate which has the smaller reported solubility kinetic at 2 h: A , or B . Give the chosen item's label as your response.
A
(A: 2.8 µM, B: 364 µM)

* * *

# ASSAY NOTES: physchem
# MEASUREMENT SETUP: PBS, pH 7.4
ENDPOINT LABEL: solubility kinetic at 2 h

Illustrative cases are given below, each with its answer.
CCC1CCc2c(sc(NC(=O)c3ccnn3C)c2C(=O)Nc2ccccc2C)C1 (stereo not drawn) : ≤ 1 µM
CSc1ncc(Cl)c(C(=O)Nc2sc3c(c2C(=O)NCc2ccccc2)CCCC3)n1 : ≤ 1 µM

Now look at this entry.
Consider Cc1cnc(S(C)(=O)=O)nc1C(=O)Nc1sc2c(c1C(=O)c1ccccc1)CCCC2 . Its measured solubility kinetic at 2 h is ≤ 1 µM

* * *

# ASSAY SYSTEM: Nuclear receptor ROR-gamma (Homo sapiens, UniProt P51449)
# Sequence (P51449 whole entry): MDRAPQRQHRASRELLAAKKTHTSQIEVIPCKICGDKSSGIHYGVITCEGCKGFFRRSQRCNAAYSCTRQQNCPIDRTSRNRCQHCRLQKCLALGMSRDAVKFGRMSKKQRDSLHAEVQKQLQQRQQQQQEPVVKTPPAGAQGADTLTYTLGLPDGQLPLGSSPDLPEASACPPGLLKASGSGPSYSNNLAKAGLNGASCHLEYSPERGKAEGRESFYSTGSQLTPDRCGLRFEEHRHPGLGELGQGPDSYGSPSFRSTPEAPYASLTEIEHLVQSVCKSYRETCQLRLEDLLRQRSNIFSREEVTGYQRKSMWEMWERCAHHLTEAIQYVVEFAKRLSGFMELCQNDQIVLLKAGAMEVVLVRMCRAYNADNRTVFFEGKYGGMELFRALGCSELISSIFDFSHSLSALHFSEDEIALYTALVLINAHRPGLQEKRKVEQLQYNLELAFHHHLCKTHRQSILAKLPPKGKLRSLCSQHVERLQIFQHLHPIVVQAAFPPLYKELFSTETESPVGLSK
# ASSAY NOTES: biochemical
pIC50: −log10 of the molar value.
ENDPOINT LABEL: pIC50

Illustrative cases are given below, each with its answer.
O=C(NCc1ccccc1)c1c(NC(=O)C(F)(F)F)sc2c1CCCC2 : 8.68
Cc1ccnc(SCC(=O)Nc2sc3c(c2C(=O)NCc2ccccc2)CCCC3)n1 : 9.16

a: CSc1ncc(Cl)c(C(=O)Nc2sc3c(c2C(=O)NC2CCS(=O)(=O)C2)CCC(C)C3)n1 (stereo not given)
b: Cc1cnc(S(C)(=O)=O)nc1C(=O)Nc1sc2c(c1C(=O)c1ccccc1)CCCC2
Recorded pIC50 values differ for a and b ; which one is higher? Give the chosen item's label as your response.
a
(a: 8.35, b: 7.78)

* * *

Listed next: entries and their corresponding solubility kinetic at 2 h.
# ASSAY NOTES: physchem
# MEASUREMENT SETUP: fasted state simulated gastric fluid, pH 1.6

Illustrative cases are given below, each with its answer.
CC1CCc2c(sc(NC(=O)c3ccccc3F)c2C(=O)N2CCN(C)CC2)C1 (centres undefined) : ≥ 400 µM
CN1CCN(CC(=O)Nc2sc3c(c2C(=O)NCc2ccccc2)CCCC3)CC1 : ≥ 400 µM
CC1CCCN1C(=O)c1c(NC(=O)c2cccnc2)sc2c1CCCC2 (centres undefined) : ≥ 400 µM

Now look at this entry.
Consider C[C@@H]1CCN(C(=O)c2c(NC(=O)c3cccnc3)sc3c2CCCC3)[C@H](C)C1 (single isomer, unassigned) . Its measured solubility kinetic at 2 h is ≥ 200 µM
